Entry source: PubChem BioAssay (NCATS)

target: Glutathione peroxidase 1 (Homo sapiens) (UniProt P07203); assay: Primary qHTS Assay for Inhibitors of Recombinant Selenoprotein Glutathione Peroxidase 1 (GPX1) (AID 1845191); settings: recombinant GPX1, GR-coupled NADPH fluorescence, 15 min; series mostly up to 48.8 µM; further: nearly all actives have a fitted effect of over 65% in size
Sequence (P07203 whole entry, looked up): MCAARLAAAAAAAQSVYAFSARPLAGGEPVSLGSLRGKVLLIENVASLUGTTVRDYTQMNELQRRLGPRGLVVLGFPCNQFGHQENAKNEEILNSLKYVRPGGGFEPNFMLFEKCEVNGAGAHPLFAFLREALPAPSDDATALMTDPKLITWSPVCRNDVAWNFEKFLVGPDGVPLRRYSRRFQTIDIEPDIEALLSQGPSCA
Records with an inconclusive call do not appear. Calls of active or inactive are those of the source. The call rests on the fitted dose curve; in most records, active means well fitted inhibition curve with a large enough effect; inconclusive means small, poorly fitted or top-dose-only effect; inactive means flat fitted curve, though single readings scatter.
Labels: yes = active, no = inactive

{"columns": ["molecule", "tested target", "class name"],
 "data": [
  ["CCOc1cc(C(C)(C)C)ccc1C1=N[C@@](C)(c2ccc(Cl)cc2)[C@@](C)(c2ccc(Cl)cc2)N1C(=O)N1CCN(CC(=O)N2CCOCC2)CC1", "Glutathione peroxidase 1 (Homo sapiens) (UniProt P07203)", "no"],
  ["C/C=C(\\C)C(=O)OC1C=C(C)CC(OC(=O)c2ccc(O)cc2)C2C1(C)CCC2(O)C(C)C (centres undefined)", "Glutathione peroxidase 1 (Homo sapiens) (UniProt P07203)", "no"],
  ["C=C1C(=O)O[C@@H]2/C=C(\\CO)CC/C=C(\\CO)[C@H](OC(C)=O)C(OC(=O)C(C)CC)C12 (some centres undefined)", "Glutathione peroxidase 1 (Homo sapiens) (UniProt P07203)", "no"],
  ["S=C(c1ccc(-c2ccc(Cl)c(Cl)c2)o1)N1CCCCC1", "Glutathione peroxidase 1 (Homo sapiens) (UniProt P07203)", "yes"]
]}

----------
system: PA-1; assay: Primary qHTS to identify gynecologic anti-cancer compounds using libraries of approved drugs and bioactive compounds (AID 1345084); conditions: Gynecologic cancer cell panel viability, ATPlite luminescence, 48 h; series mostly up to 57.5 µM; further: nearly all actives have a fitted effect of over 55% in size
Inconclusive results are not listed. The source made the active and inactive calls. Calls follow the shape of the dose curve; as a rule, active = well fitted cell-killing curve with a large enough effect; inconclusive = small, poorly fitted or top-dose-only effect, or effect the other way; inactive = flat fitted curve, though single readings scatter.
Labels: active, inactive

{"columns": ["compound", "tested target", "class name"],
 "data": [
  ["O=C(Nc1ccc(Cl)cc1)Nc1cccc(-c2cccc(N3CCCC3)n2)c1", "PA-1", "inactive"],
  ["COc1ccnc(CS(=O)c2nc3cc(OC(F)F)ccc3[nH]2)c1OC (stereo unspecified)", "PA-1", "inactive"],
  ["Cc1cccc(-c2[nH]ncc2-c2ccnc3ccccc23)n1", "PA-1", "inactive"],
  ["Fc1ccc(-c2nc(-c3c(F)cccc3F)[nH]c2-c2ccncc2)cc1", "PA-1", "inactive"],
  ["O=C(N[C@H](Cc1cscn1)C(=O)N[C@@H](CC1CCCCC1)[C@@H](O)[C@@H](O)C1CC1)c1nc2ccccc2[nH]1", "PA-1", "inactive"],
  ["COc1cc(C(N)=O)nc(-c2ccccn2)c1O", "PA-1", "inactive"],
  ["COC1CC(O[C@H]2CC[C@]3(C)C4CC[C@@]5(C)C(=O)[C@]4(CC[C@@H]3C2)CC[C@@H]5C2=CC(=O)OC2)OC(C)C1OC1OC(COC2OC(CO)C(O)C(O)C2O)C(O)C(O)C1O (stereo partly specified)", "PA-1", "active"],
  ["O=C(Nc1cccnc1)c1cc(-c2ccnc(F)c2)ccc1OCc1ccccc1", "PA-1", "inactive"],
  ["CN1CCN(C(=O)CN[C@@H]2C[C@H]2c2ccc(OCc3ccccc3)cc2)CC1", "PA-1", "inactive"],
  ["COc1ccccc1S(=O)(=O)Nc1ccc2c(c1)CN(C)C(=O)N2", "PA-1", "inactive"],
  ["COc1cc(CCc2ccc(OCC=C(C)C)cc2)cc(OC)c1OC", "PA-1", "inactive"]
]}
